Recorded screen value, one value per entry.
B1: S. cerevisiae Abp1 (full length; SH3 domain 535-592 mutated) / Hua2 (parent)
chain 1: MALEPIDYTTHSREIDAEYLKIVRGSDPDTTWLIISPNAKKEYEPESTGSSFHDFLQLFDETKVQYGLARVSPPGSDVEKIIIIGWCPDSAPLKTRASFAANFAAVANNLFKGYHVQVTARDEDDLDENELLMKISNAAGARYSIQTSSKQQGKASTPPVKKSFTPSKSPAPVSKKEPVKTPSPAPAAKISSRVNDNNDDDDWNEPELKERDFDQAPLKPNQSSYKPIGKIDLQKVIAEEKAKEDPRLVQKPTAAGSKIDPSSDIANLKNESKLKRDSEFNSFLGTTKPPSMTESSLKNDDDKVIKGFRNEKSPAQLWAERKAKQNSGNAETKAEAPKPEVPEDEPEGEPDVKDLKSKFEGLAASEKEEEEMENKFAPPPKKSEPTIISPKPFSKPQEPVKAEEAEQPKTDYKKIGNPLPGMHIEADNEEEPEENDDDWDDDEDEAAQPPLPSRNVASGAPVQKEEPEQEEIAPSLPSRNSIPAPKQEEAPEQAPEEEIEEEAEEAAPQLPSRSSAAPPPPPRRATPEKKPKENPWATAEYDYDAAEDNELTFVENDKIINIEFVDDDWWLGELEKDGSKGLFPSNYVSLGN
chain 2: MQQTKFGKMYLDHDSVVEYSEDEIVEADRITLGYKKRLSMIENQMRHLLEDFSLDVQQIEPILADLQKYYDAFLQLLQKRNKSLQCKRSTHQPVPSPMNSQTSTNAKVNLSGKLMKFQLNSVQKFDEENILRILQNKIEFEHYFQIDKGKKQKVLLLAVYQCLNGPTRLHKVLNIEGIIHNNSIRTILGKQVSSSKWTVFLYDVKLVLLAHRQDVPNLETSKMIVRYGDLFPCALYFKDHTAY

Variants of: B1
measurement.notes: DHFR protein-fragment complementation in yeast (Abp1-DHFR F[1,2] x partner-DHFR F[3]), deep mutational scanning, second methotrexate selection vs reference
measurement.conditions: with Hua2; S. cerevisiae, DHFR-PCA selection in liquid with methotrexate at 30 C, two 72 h selections (the score uses the second); reference = the pre-selection culture; not an affinity; value at the no-binding floor (a bound); scale: DMS score: mean over two replicates of log2(f_test/f_ref + 0.5)/ln 2, minus the synonymous-codon median

See these solved cases before continuing.
1. chain 1 D567F ... -2.99
2. chain 1 G572A ... -3.02
3. chain 1 G581P ... < -3.06
4. chain 1 G572F ... < -3.06
5. chain 1 G572Q ... < -3.06

[Q] What measured screen value goes with chain 1 G572T ?
[A] -3.04

[Q] Then chain 1 G572P ?
[A] < -3.06

[Q] Then this variant: chain 1 A539L
[A] < -3.06

Reference for the values: paper PMC7954794
